Source listed as ChEMBL document CHEMBL3872212.

Tested on: Aspergillus niger
METHOD SUMMARY: Antifungal activity against Aspergillus niger MTCC 1881 at 200 ug/mL incubated at 4 degC for 24 hrs followed by subsequent incubation at 37.5 degC for 3 days by poisoned food method
Format: functional
CONDITIONS: read-out: DIZ
Classification field: enter rule met for zone of inhibition at 200 µg/mL values not below 10 mm, rule not met for values below it.

# count of solved cases: 2
| COMPOUND | CLASS ASSIGNMENT |
| --- | --- |
| Cc1cc(C)c(-c2ccc(-c3nc(C)sc3C)cc2)c(C)c1 | rule met |
| Cc1nc(-c2ccc(-c3ccc(O)cc3)cc2)c(C)s1 | rule met |

Identify whether the reported zone of inhibition at 200 µg/mL of the following compound is 10 mm or greater: `COc1ccc(-c2ccc(-c3nc(C)sc3C)cc2)cc1`
rule met

Is it the case that `COc1ccc(-c2ccc(-c3nc(C)sc3C)cc2)cc1OC` has zone of inhibition at 200 µg/mL reaching or exceeding 10 mm?
rule met

Is it the case that `Cc1nc(-c2ccc(-c3ccc(I)cc3)cc2)c(C)s1` has zone of inhibition at 200 µg/mL reaching or exceeding 10 mm?
rule not met

Quick check: does `Cc1ccc(-c2ccc(-c3nc(C)sc3C)cc2)cc1` have zone of inhibition at 200 µg/mL greater than or equal to 10 mm?
rule met

Textbook exercise: given the entry `Cc1nc(-c2ccc(-c3ccc(CO)cc3)cc2)c(C)s1` , state whether its zone of inhibition at 200 µg/mL is greater than or equal to 10 mm.
rule met

Could you tell me if the measured zone of inhibition at 200 µg/mL of `Cc1nc(-c2ccc(-c3cccc(C=O)c3)cc2)c(C)s1` reaches 10 mm or more?
rule not met

// inclusive: zone of inhibition at 200 µg/mL at least 10 mm? input: CC(=O)N1CCN(c2ccc(OCC3COC(Cn4ccnc4)(c4ccc(Cl)cc4Cl)O3)cc2)CC1 (stereo not given)
rule met

Please indicate if the recorded zone of inhibition at 200 µg/mL for `COc1cccc(-c2ccc(-c3nc(C)sc3C)cc2)c1` meets or exceeds 10 mm.
rule not met
